- Test system: FMAL-actin plus TMR-cC0-C2
- methodNotes: Selleck library HTS, 473 nm excitation (FLT of FMAL-actin with TMR-cC0-C2, FLT-FRET)
- Format: binding, human
- studyConditions: initial screen, 30 μM compound
# 473-nm Δτ, Repeat 1 >= 0.1 ns gives Met, anything below gives Not met

Would you please look over these solved cases?
>  <compound>
CC1=NN(c2ccc(C)c(C)c2)C(=O)/C1=N\Nc1cccc(-c2cccc(C(=O)O)c2)c1O [Eltrombopag olamine]

>  <targetOrSystem>
FMAL-actin plus TMR-cC0-C2

>  <classLabel>
Met

$$$$
>  <compound>
Cc1cn(-c2cc(NC(=O)c3ccc(C)c(Nc4nccc(-c5cccnc5)n4)c3)cc(C(F)(F)F)c2)cn1.Cl [Nilotinib hydrochloride]

>  <targetOrSystem>
FMAL-actin plus TMR-cC0-C2

>  <classLabel>
Not met

$$$$
>  <compound>
CCC(C)(Oc1ccc(C2(c3ccc(OC(C)(CC)C(=O)O)cc3)CCCCC2)cc1)C(=O)O (centres unmarked) [Clinofibrate]

>  <targetOrSystem>
FMAL-actin plus TMR-cC0-C2

>  <classLabel>
Not met

$$$$
>  <compound>
CCN(C(=O)c1c(O)c2c(Cl)cccc2n(C)c1=O)c1ccccc1 [Laquinimod]

>  <targetOrSystem>
FMAL-actin plus TMR-cC0-C2

>  <classLabel>
Met

$$$$

# input for lookup
Query: # bool: 473-nm Δτ, Repeat 1 of COc1cc(Nc2ncc(F)c(Nc3ccc4c(n3)N(COP(=O)(O)O)C(=O)C(C)(C)O4)n2)cc(OC)c1OC [Fostamatinib (R788), Fostamatinib] >= 0.1 ns
Response: Met

* * *

- Tested on: TMR-cC0-C2
- methodNotes: Selleck library HTS, 532 nm excitation (FLT of TMR-cC0-C2 in presence of FMAL-actin)
- Assay type: binding, human
- studyConditions: initial screen, 30 μM compound
Hi there, I'd appreciate the recorded 532-nm Δτ, Repeat 1 for every entry that follows.
// unit must come after the numeric part

Please go through the list and note 532-nm Δτ, Repeat 1 for each compound.
1. CC1(C)CC[C@]2(C(=O)O)CC[C@]3(C)C(=CC[C@@H]4[C@@]5(C)CC[C@H](O)[C@@](C)(CO)[C@@H]5CC[C@]43C)[C@@H]2C1
2. C=CC1=C(C)c2cc3[nH]c(cc4nc(cc5[nH]c(cc1n2)c(C)c5CCC(=O)O)C(CCC(=O)O)=C4C)c(C)c3C=C
3. Clc1ccc(C(Cn2ccnc2)OCc2ccc(Sc3ccccc3)cc2)c(Cl)c1 (stereo not shown) [Fenticonazole nitrate]
4. CN1CCCN=C1/C=C/c1cccs1 [Pyrantel pamoate]

Response:
-0.038 ns
0.067 ns
-0.011 ns
-0.043 ns

Would you be so kind as to report 532-nm Δτ, Repeat 1 for each listed record?
1. COC(=O)N[C@H](C(=O)N1CCC[C@H]1c1nc(-c2ccc3c(c2)O[C@@H](c2ccccc2)n2c-3cc3cc(-c4c[nH]c([C@@H]5CCCN5C(=O)[C@@H](NC(=O)OC)C(C)C)n4)ccc32)c[nH]1)C(C)C
2. Cc1cn(-c2cc(NC(=O)c3ccc(C)c(Nc4nccc(-c5cccnc5)n4)c3)cc(C(F)(F)F)c2)cn1.Cl [Nilotinib hydrochloride]
3. CCC(=O)c1c(O)cc(O)cc1O

Response:
["-0.002 ns", "0.121 ns", "-0.062 ns"]
